Values were extracted from the supplement of paper PMC10307832.

For each of the compounds below, state its relative viability.
System: NCI-H1437
TEST NAME: relative viability (nuclei count vs DMSO), 5 days (fraction); higher = more cells survive
ASSAY CONTEXT: first compound 8 µM
Numbers only.

These recorded examples may help you get a feel for the data.
Task: Given the compound O=c1cc(-c2cccc3c2Sc2ccccc2S3)oc(N2CCOCC2)c1 + O=C(CCCCCCC(=O)Nc1ccccc1)NO [Vorinostat] (partner 1 µM) , what is its reported relative viability?
Result: 0.857

Task: Given the compound O=c1cc(-c2cccc3c2Sc2ccccc2S3)oc(N2CCOCC2)c1 + C[C@]1(O)C[C@@H](c2nc(-c3ccc4ccc(-c5ccccc5)nc4c3)c3c(N)nccn32)C1 [Linsitinib] (partner 1 µM) , what is its reported relative viability?
Result: 1.12

Task: Given the compound O=c1cc(-c2cccc3c2Sc2ccccc2S3)oc(N2CCOCC2)c1 + Cc1nc(NC(=O)N2CCC[C@H]2C(N)=O)sc1-c1ccnc(C(C)(C)C(F)(F)F)c1 [Alpelisib] (partner 2 µM) , what is its reported relative viability?
Result: 1.08

Task: Given the compound O=c1cc(-c2cccc3c2Sc2ccccc2S3)oc(N2CCOCC2)c1 + C[C@@H](Oc1cc(-c2cnn(C3CCNCC3)c2)cnc1N)c1c(Cl)ccc(F)c1Cl [Crizotinib] (partner 1 µM) , what is its reported relative viability?
Result: 1.07

Task: Given the compound O=c1cc(-c2cccc3c2Sc2ccccc2S3)oc(N2CCOCC2)c1 + CC1(C)CCC(c2ccc(Cl)cc2)=C(CN2CCN(c3ccc(C(=O)NS(=O)(=O)c4ccc(N[C@H](CCN5CCOCC5)CSc5ccccc5)c(S(=O)(=O)C(F)(F)F)c4)cc3)CC2)C1 [Navitoclax] (partner 0.5 µM) , what is its reported relative viability?
Result: 1.39

Task: Given the compound O=c1cc(-c2cccc3c2Sc2ccccc2S3)oc(N2CCOCC2)c1 + CCNC(=O)c1noc(-c2cc(C(C)C)c(O)cc2O)c1-c1ccc(CN2CCOCC2)cc1 [Luminespib] (partner 0.01 µM) , what is its reported relative viability?
Result: 1.21

More entries:
Task: Given the compound O=c1cc(-c2cccc3c2Sc2ccccc2S3)oc(N2CCOCC2)c1 + NC(=O)Nc1cc(-c2cccc(F)c2)sc1C(=O)N[C@H]1CCCNC1 [AZD7762] (partner 0.2 µM) , what is its reported relative viability?
Result: 1.23

---

System: NCI-H322M
TEST NAME: relative viability (nuclei count vs DMSO), 5 days (fraction); higher = more cells survive
ASSAY CONTEXT: first compound 0.253 µM
ENDPOINT NAME: relative viability
Answers are plain numbers.

Task: Given the molecule COc1nc(C)cnc1NS(=O)(=O)c1cccnc1-c1ccc(-c2nnco2)cc1 [Zibotentan] + COc1cccc2cc(-c3nc([C@H]4CC[C@H](C(=O)O)CC4)n4ncnc(N)c34)[nH]c12 [OSI-027] (partner 0.5 µM) , what is its reported relative viability?
Result: 0.508

Task: Given the molecule COc1nc(C)cnc1NS(=O)(=O)c1cccnc1-c1ccc(-c2nnco2)cc1 [Zibotentan] + CCNC(=O)c1noc(-c2cc(C(C)C)c(O)cc2O)c1-c1ccc(CN2CCOCC2)cc1 [Luminespib] (partner 0.01 µM) , what is its reported relative viability?
Result: 0.474

Task: Given the molecule O=c1cc(-c2cccc3c2Sc2ccccc2S3)oc(N2CCOCC2)c1 + Nc1ncn([C@H]2C[C@H](O)[C@@H](CO)O2)c(=O)n1 [Decitabine] (partner 2 µM) , what is its reported relative viability?
Result: 0.73

Task: Given the molecule O=c1cc(-c2cccc3c2Sc2ccccc2S3)oc(N2CCOCC2)c1 + Cc1nc(NC(=O)N2CCC[C@H]2C(N)=O)sc1-c1ccnc(C(C)(C)C(F)(F)F)c1 [Alpelisib] (partner 2 µM) , what is its reported relative viability?
Result: 0.79

Could you now consider this next molecule?
Task: Given the molecule COc1nc(C)cnc1NS(=O)(=O)c1cccnc1-c1ccc(-c2nnco2)cc1 [Zibotentan] + CC(C)C[C@H](NC(=O)[C@H](Cc1ccccc1)NC(=O)c1cnccn1)B(O)O [Bortezomib] (partner 0.002 µM) , what is its reported relative viability?
Result: 1.22
